Each entry below lists one item and its recorded IC50 value.
Tested on: IST-SL1;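 note: growth inhibition of human IST-SL1 cells, read out with a cell viability assay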
procedure.text: cells
Assay type: functional, cell-based
experimental.setup: Homo sapiens
Description: SANGER: Inhibition of human IST-SL1 cell growth in a cell viability assay.

Answered cases to consult:
C/C(O)=C(\C#N)C(=O)Nc1cc(Br)ccc1Br = > 16000 nM
Cc1ccc(NC(=O)c2cccc(C(C)(C)C#N)c2)cc1Nc1ccc2ncn(C)c(=O)c2c1 = > 4000 nM
C/C=C(/C)C(=O)O[C@H]1C(C)=C2[C@H]([C@@H]1OC(=O)CCCCCCC)[C@@](C)(OC(C)=O)C[C@H](OC(=O)CCC)[C@@]1(O)[C@H]2OC(=O)[C@@]1(C)O [THAPSIGARGIN] = 24.2 nM

Query (compound): O=c1[nH]c2ccccc2n1C1CCN(Cc2ccc(-c3nc4cc5[nH]cnc5cc4nc3-c3ccccc3)cc2)CC1 ; field requested: IC50 > 2560 nM

One more compound: O=C(CCCCCCC(=O)Nc1ccccc1)NO [VORINOSTAT] 2170 nM

Next entry: CC(O)(CS(=O)(=O)c1ccc(F)cc1)C(=O)Nc1ccc(C#N)c(C(F)(F)F)c1 (stereo not drawn) [BICALUTAMIDE] > 1020 nM

Would you mind doing CCNc1cc(N[C@H]2CC[C@@H](O)CC2)nc(Nc2ccc3c(ccn3Cc3ccccc3)c2)n1 as well? > 5120 nM

Okay, and Cn1c(=O)n(-c2ccc(C(C)(C)C#N)cc2)c2c3cc(-c4cnc5ccccc5c4)ccc3ncc21 [DACTOLISIB] ? 1440 nM
